test: qHTS Assay for Lipid Storage Modulators in Drosophila S3 Cells; conditions: BODIPY lipid droplet fluorescence, 18-24 h, cells fed with added oleic acid; series mostly up to 46.1 µM
Hit rate of the full screen: of about 320,000 compounds, about 2,100 (0.66%) were called active. Not shown: some 53% with an inconclusive outcome. The call rests on the fitted dose curve; in most records, active means well fitted inhibition curve with a large enough effect in the signal ratio, with a control signal flat (not every such curve was filed as active); inconclusive means small, poorly fitted or top-dose-only effect, or effect the other way, or a change in a side signal; inactive means flat fitted curve, though single readings scatter; the % refers to the signal ratio. Shown is part of a subset that was picked to be rich in actives.
Tick one outcome: 1 for active, -1 for inactive

Consider the worked cases shown below.
- Compound: "COC(=O)c1c(NC(=O)CN2C(=O)NC3(CCCCC3C)C2=O)sc2c1CCC2 (stereo not given)"
  Label class: 1
- Compound: "Cc1ccc(C(=O)CSc2nnc(-c3ccccc3)n2-c2ccccc2)o1"
  Label class: -1
- Compound: "O=C(Nc1ccc(Cl)cc1)Nc1ccon1"
  Label class: -1
- Compound: "CCOC(=O)c1c(NC(=O)CN2C(=O)NC3(CCCCC3C)C2=O)sc(C)c1C (stereo not given)"
  Label class: -1

From here, focus on the item given below.
Hi team, can someone confirm the assay call for CCC(Sc1nc2ccccc2o1)C(=O)O (stereo not given) ?
-1

----------
experiment: qHTS Assay for Lipid Storage Modulators in Drosophila S3 Cells; conditions: BODIPY lipid droplet fluorescence, 18-24 h, cells fed with added oleic acid; series mostly up to 46.1 µM
In all, about 320,000 compounds went through this assay and about 2,100 (0.66%) were called active. Not shown: some 53% with an inconclusive outcome. Calls come from the whole dose curve; as a rule, active = well fitted inhibition curve with a large enough effect in the signal ratio, with a control signal flat (not every such curve was filed as active); inconclusive = small, poorly fitted or top-dose-only effect, or effect the other way, or a change in a side signal; inactive = flat fitted curve, though single readings scatter; the % refers to the signal ratio. For the sample, actives were picked, then their nearest neighbours and some compounds at random.
Tick one outcome: 1 = active, 0 = inactive

- Compound: "Cc1cccc(-c2ccc3ncnc(NCc4cc(C)cs4)c3c2)c1"
  Label class: 0
- Compound: "Clc1cccc(NC2=NCCC2)c1"
  Label class: 1
- Compound: "S=c1[nH]nc(COc2ccc3ccccc3c2)o1"
  Label class: 0
- Compound: "Cc1cc(S(=O)(=O)NCc2cccnc2)ccc1-n1cnnn1"
  Label class: 0
- Compound: "COc1c(Br)cc2c(C)c(C(=O)O)oc2c1Br"
  Label class: 0

Hi team, can someone confirm the assay call for "COc1cccc(NC(=O)c2oc3ccc(S(=O)(=O)N4CCOCC4)cc3c2C)c1" ?
0

Hi team, can someone confirm the assay call for Cc1cc(=O)n2nc(N3CCCC(C(=O)NCc4ccccc4Br)C3)sc2n1 (centres undefined) ?
1

Hi team, can someone confirm the assay call for "S=C(NCc1cccc(Cl)c1)NCc1ccco1" ?
0

Hi team, can someone confirm the assay call for "COc1ccc(/C=C/C(=O)c2ccc(O)cc2)cc1" ?
0

----------
assay: qHTS Assay for Lipid Storage Modulators in Drosophila S3 Cells; details: BODIPY lipid droplet fluorescence, 18-24 h, cells fed with added oleic acid; series mostly up to 46.1 µM
Out of some 320,000 compounds screened, about 2,100 (0.66%) were called active. Roughly 53% stayed inconclusive and do not appear here. Calls come from the whole dose curve; as a rule, active = well fitted inhibition curve with a large enough effect in the signal ratio, with a control signal flat (not every such curve was filed as active); inconclusive = small, poorly fitted or top-dose-only effect, or effect the other way, or a change in a side signal; inactive = flat fitted curve, though single readings scatter; the % refers to the signal ratio. The list comes from a sample in which actives are over-represented; it also holds close analogues and randomly drawn compounds.
Tick one outcome: active, inactive

Consider the worked cases shown below.
- Molecule: "CNC(=S)N/N=C/c1c(C(=O)OC)cnn1-c1ccc(F)cc1F"
  Label class: "inactive"
- Molecule: "O=S(=O)(CCc1nc2ccccc2s1)c1ccc(Cl)cc1"
  Label class: "inactive"
- Molecule: "Cc1ccc(S(=O)(=O)CCc2nc3ccccc3s2)cc1"
  Label class: "inactive"
- Molecule: "CCOc1ccc(NC(=O)CCN2CCCCC2)cc1"
  Label class: "inactive"
- Molecule: "COc1ccc(NC(=O)N2CCCC(CNS(=O)(=O)c3cccs3)C2)c(C)c1 (stereo not drawn)"
  Label class: "inactive"
- Molecule: "O=C1CCCN1c1ccc(S(=O)(=O)N2CCCCC2)cc1[N+](=O)[O-]"
  Label class: "inactive"

Hi team, can someone confirm the assay call for "Cc1ccc(S(=O)(=O)N(C)c2ccc(C(=O)N3CCC(C(N)=O)CC3)cc2)cc1" ?
active

Hi team, can someone confirm the assay call for "Cc1cccc([C@@H]2[C@@H]3C(=O)N(Cc4ccccc4)C(=O)[C@@H]3[C@]3(Cc4ccccc4)C(=O)N(c4ccc(C(F)(F)F)cc4)C(=O)N23)c1" ?
inactive

Hi team, can someone confirm the assay call for "O=C1CN(C(=O)CNC(=O)c2cccc(Cl)c2)c2ccccc2N1" ?
inactive
